# System: MDA-MB-231 breast
# Protocol notes: NCI tumour cell line growth inhibition, 48 h
Readings of GI50 for the listed compounds

Worked examples follow.
| Compound | Parameter measured | Result |
| --- | --- | --- |
| COc1ccc(Nc2ncc(I)c(NCCCNC(=O)C3CCC3)n2)cc1 | GI50 | 1.66 µM |
| NC(=O)c1cn(C2CC(O)C(CO)O2)c2ncnc(N)c12 (stereo unspecified) | GI50 | 3.26 µM |
| ClCc1ccccc1Cn1cnc2nc(Cl)nc(Cl)c21 | GI50 | 0.219 µM |
| COc1cc2c3c(n(CCCN=[N+]=[N-])c(=O)c2cc1OC)-c1ccc(F)cc1C3=O | GI50 | > 100 µM |

Need GI50, item COc1cc(OC)c(C(=O)/C=C/c2ccc(C#N)cc2)c(OC)c1
2.31 µM

What do you have for CCOC(=O)c1ccc(N2NC(=O)/C(=C/c3ccc([N+](=O)[O-])o3)C2=O)cc1 ?
22.5 µM

----------
Readings of GI50 for the listed compounds
# System: HS 578T breast
# Protocol notes: NCI tumour cell line growth inhibition, 48 h

| Compound | Assay target | Parameter measured | Result |
| --- | --- | --- | --- |
| COc1cc(OC)c(C(=O)/C=C/c2ccc(C#N)cc2)c(OC)c1 | HS 578T breast | GI50 | 1.93 µM |
| CC(C)[C@@]12C[C@@H](OC(=O)C3CO3)[C@@](C)(O1)[C@@H]1CC[C@@H](C)[C@H]1[C@@H]2OC(=O)/C=C/c1ccccc1 (stereo partly drawn) | HS 578T breast | GI50 | 0.354 µM |
| CCCCCCCCCCCCCCCCn1cc[n+](C)c1 | HS 578T breast | GI50 | 0.383 µM |
| Cn1cnc([N+](=O)[O-])c1S(=O)(=O)Oc1ccc(Cl)cc1 | HS 578T breast | GI50 | 19.6 µM |
| COc1ccc(-c2cnc(-c3ccc(OC)cc3)n2-c2cc(OC)c(OC)c(OC)c2)cc1 | HS 578T breast | GI50 | 22.9 µM |

Need GI50, item COc1ccc(Sc2[nH]c(C=O)c3ccccc23)cc1
6.44 µM

What do you have for COC(=O)c1c2c(c(C)[n+]([O-])c1C)C(=O)C(NCc1ccccc1)=CC2=O ?
7 µM

What do you have for COc1cccc2c1C(=O)c1c(O)c3c(c(O)c1C2=O)C[C@](O)(C(=O)CO)C[C@H]3O[C@@H]1C[C@@H](NC(=O)CCCN(C)C2(c3ccc(F)cc3)CC3CCC2C3)[C@H](O)[C@@H](C)O1 (stereo partly drawn) ?
6.78 µM

What do you have for Oc1ccc(N=Nc2ccc(Br)cc2)c(O)c1 ?
2.2 µM

What do you have for COc1ccc(C2c3ccc4ccccc4c3Oc3ncn(CCCn4ccnc4)c(=N)c32)cc1OC (stereo not drawn) ?
2.26 µM

What do you have for COc1cc2c3c(n(CCCN=[N+]=[N-])c(=O)c2cc1OC)-c1ccc([N+](=O)[O-])cc1C3=O ?
48 µM

What do you have for CC(C)CCN(CCC(C)C)CC(=O)Nc1ccc(S(=O)(=O)c2ccc(NC(=O)CN(CCC(C)C)CCC(C)C)cc2)cc1 ?
5.37 µM

What do you have for COc1cc2c(cc1OC)[C@@H]1C(=O)c3ccc4c(c3O[C@@H]1CO2)C[C@H](C(C)C)O4 ?
8.15 µM
